# TARGET OF ASSAY: T1, GFRα4 isoform a (GFRα4a), Fc fusion with 6 His (human)
# T1 construct: the entry holds the whole fusion; also called GFR4α4a; immobilized GFRα4 isoform a
# T1 chain: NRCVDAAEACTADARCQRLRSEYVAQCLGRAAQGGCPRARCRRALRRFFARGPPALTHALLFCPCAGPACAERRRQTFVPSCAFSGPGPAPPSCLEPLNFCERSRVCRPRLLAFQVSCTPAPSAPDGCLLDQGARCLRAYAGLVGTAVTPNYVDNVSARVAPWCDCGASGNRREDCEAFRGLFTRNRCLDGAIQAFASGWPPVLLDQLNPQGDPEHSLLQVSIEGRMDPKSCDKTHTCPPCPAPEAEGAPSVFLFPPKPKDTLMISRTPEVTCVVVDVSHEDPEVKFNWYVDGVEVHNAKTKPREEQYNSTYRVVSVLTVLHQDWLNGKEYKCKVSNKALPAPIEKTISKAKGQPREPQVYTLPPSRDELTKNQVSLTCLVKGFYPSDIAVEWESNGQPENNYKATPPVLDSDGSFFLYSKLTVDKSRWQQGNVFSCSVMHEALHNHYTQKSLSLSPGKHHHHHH
# ASSAY OVERVIEW: phage ELISA, immobilized GFRα4a; first token of the cell
# Source text: To perform these ELISAs, the GFRα4a isoform comprising a portion of GFRα4a (Asn24 -Ser245, UniProt accession #Q9GZZ7-2) was used, followed by a Factor Xa cleavage site/linker, a portion of optimized IgG1 Fc domain (Pro100-Lys330), and 6 His residues for purification. The GFRα4b isoform comprised a portion of GFRα4b (Asn24-Va1274, UniProt #Q9GZZ7-1), followed by a TEV cleavage site linker, and a portion of human IgG1 Fc domain (Asp104-Lys330).
MEASUREMENT KIND: binding result

Return reported binding result; argument: 26.H1.L1m4 (scFv, pIII not in the entry; order Vλ-linker-VH; also called scFv 26) scFv: QLVLTQSPSASASLGASVKLTCTLSSAHKTYTIAWHQQQPEKGPRYLMQVKSDGSYTKGTGVPDRFSGSSSGADRYLTISSLQSEDEADYYCGADDNGGYVFGGGTQLTVLGGGSSRSSSSGGGGSGGGGQVQLQESGPGLVKPSETLSLTCAVSGYSISRHALTWIRQPPGKGLEWIGAIDNAGTTYYASWAKSRVTISVDTSKNQFSLKLSSVTAADTAVYYCARVFYDINSGYYLDGMDLWGPGTLVTVSS no binding

binding result for 10.H2.L1m1 (scFv, pIII not in the entry; order Vλ-linker-VH; also called scFv 10) scFv: QFVLTQSPSASASLGASVKLTCTLSSAHKTYTIDWYQQQPEKGPRYLMQVKSDGSYTKGTGVPDRFSGSSSGADRYLTISSLQSEDEADYYCGADDNGGYVFGGGTQLTVTGGGSSRSSSSGGGGSGGGGEVQLVESGGGLVQPGGSLRLSCAASGFTFSRHALTWVRQAPGKGLEWVSAIDNAGTTYYASWAKSRFTISRDNAKNSLYLQMNSLRAEDTAVYYCARVFYDINSGYYLDGMDLWGPGTLVTVSS ? binds

Fill in the blank: the reported binding result of 20.H2.L2m3 (scFv, pIII not in the entry; order Vλ-linker-VH; also called scFv 20) scFv: QSVLTQPPSASGTPGQRVTISCTLSSAHKTYTIDWYQQLPGTAPKLLIYVKSDGSYTKGTGVPDRFSGSKSGTSASLAISGLQSEDEADYYCGADDNGGYVFGGGTQLTVLGGGSSRSSSSGGGGSGGGGEVQLVESGGGLVQPGGSLRLSCAASGFTFSRHALTWVRQAPGKGLEWVSAIDNAGTTYYASWAKSRFTISRDNAKNSLYLQMNSLRAEDTAVYYCARVFYDINSGYYLDGMDLWGPGTLVTVSS is ____. no binding

Please report the recorded binding result for 29.H2.L1m3 (scFv, pIII not in the entry; order Vλ-linker-VH; The printed VL ends TVT; also called scFv 29) scFv: QLVLTQSPSASASLGASVKLTCTLSSAHKTYTIDWYQQQPEKGPRYLMQVKSDGSYTKGTGVPDRFSGSSSGADRYLTISSLQSEDEADYYCGADDNGGYVFGGGTQLTVTGGGSSRSSSSGGGGSGGGGEVQLVESGGGLVQPGGSLRLSCAASGFTFSRHALTWVRQAPGKGLEWVSAIDNAGTTYYASWAKSRFTISRDNAKNSLYLQMNSLRAEDTAVYYCARVFYDINSGYYLDGMDLWGPGTLVTVSS . binds

Fill in the blank: the reported binding result of 24.H2.L3m1 (scFv, pIII not in the entry; order Vλ-linker-VH; also called scFv 24) scFv: QFVLTQPASVSGSPGQSITISCTLSSAHKTYTIDWYQQHPGKAPKYLMQVKSDGSYTKGTGVPNRFSGSSSGADRYLTISGLQAEDEADYVCGADDNGGYVFGGGTQLTVTGGGSSRSSSSGGGGSGGGGEVQLVESGGGLVQPGGSLRLSCAASGFTFSRHALTWVRQAPGKGLEWVSAIDNAGTTYYASWAKSRFTISRDNAKNSLYLQMNSLRAEDTAVYYCARVFYDINSGYYLDGMDLWGPGTLVTVSS is ____. binds

Continuing:
Quick one: binding result for 8.H2m1.L2m1 (scFv, pIII not in the entry; order Vλ-linker-VH; The printed entry has an E before QSVKE of the VH; also called scFv 8) scFv: QFVLTQPPSASGTPGQRVTISCTLSSAHKTYTIDWYQQLPGTAPKLLIYVKSDGSYTKGTGVPDRFSGSSSGADRYLAISGLQSEDEADYYCGADDNGGYVFGGGTQLTVTGGGSSRSSSSGGGGSGGGGEQSVKESGGGLVQPGGSLRLSCAASGFTLSRHALTWVRQAPGKGLEWIGAIDNAGTTYYASWAKSRFTISRNTDLHTVYLQMNSLRAEDTAVYFCARVFYDINSGYYLDGMDLWGPGTLVTVSS ? binds

Consider the binder 21.H2.L1m2 (scFv, pIII not in the entry; order Vλ-linker-VH; also called scFv 21) scFv: QFVLTQSPSASASLGASVKLTCTLSSAHKTYTIDWHQQQPEKGPRYLMQVKSDGSYTKGTGIPDRFSGSSSGAERYLTISSLQSEDEADYYCGADDNGGYVFGGGTQLTVLGGGSSRSSSSGGGGSGGGGEVQLVESGGGLVQPGGSLRLSCAASGFTFSRHALTWVRQAPGKGLEWVSAIDNAGTTYYASWAKSRFTISRDNAKNSLYLQMNSLRAEDTAVYYCARVFYDINSGYYLDGMDLWGPGTLVTVSS and give its measured binding result. no binding

Any idea what its binding result is? The binder is 25.H1.L1m3 (scFv, pIII not in the entry; order Vλ-linker-VH; also called scFv 25) scFv: QLVLTQSPSASASLGASVKLTCTLSSAHKTYTIDWYQQQPEKGPRYLMQVKSDGSYTKGTGVPDRFSGSSSGADRYLTISSLQSEDEADYYCGADDNGGYVFGGGTQLTVLGGGSSRSSSSGGGGSGGGGQVQLQESGPGLVKPSETLSLTCAVSGYSISRHALTWIRQPPGKGLEWIGAIDNAGTTYYASWAKSRVTISVDTSKNQFSLKLSSVTAADTAVYYCARVFYDINSGYYLDGMDLWGPGTLVTVSS binds

State the recorded binding result for this entry: 6.H2.L2m1 (scFv, pIII not in the entry; order Vλ-linker-VH; also called scFv 6) scFv: QFVLTQPPSASGTPGQRVTISCTLSSAHKTYTIDWYQQLPGTAPKLLIYVKSDGSYTKGTGVPDRFSGSSSGADRYLAISGLQSEDEADYYCGADDNGGYVFGGGTQLTVTGGGSSRSSSSGGGGSGGGGEVQLVESGGGLVQPGGSLRLSCAASGFTFSRHALTWVRQAPGKGLEWVSAIDNAGTTYYASWAKSRFTISRDNAKNSLYLQMNSLRAEDTAVYYCARVFYDINSGYYLDGMDLWGPGTLVTVSS binds
